Data origin: ChEMBL document CHEMBL1145637

Below are compounds with their IC50 as measured on RAF proto-oncogene serine/threonine-protein kinase (Homo sapiens, UniProt P04049).
Sequence (P04049 whole entry): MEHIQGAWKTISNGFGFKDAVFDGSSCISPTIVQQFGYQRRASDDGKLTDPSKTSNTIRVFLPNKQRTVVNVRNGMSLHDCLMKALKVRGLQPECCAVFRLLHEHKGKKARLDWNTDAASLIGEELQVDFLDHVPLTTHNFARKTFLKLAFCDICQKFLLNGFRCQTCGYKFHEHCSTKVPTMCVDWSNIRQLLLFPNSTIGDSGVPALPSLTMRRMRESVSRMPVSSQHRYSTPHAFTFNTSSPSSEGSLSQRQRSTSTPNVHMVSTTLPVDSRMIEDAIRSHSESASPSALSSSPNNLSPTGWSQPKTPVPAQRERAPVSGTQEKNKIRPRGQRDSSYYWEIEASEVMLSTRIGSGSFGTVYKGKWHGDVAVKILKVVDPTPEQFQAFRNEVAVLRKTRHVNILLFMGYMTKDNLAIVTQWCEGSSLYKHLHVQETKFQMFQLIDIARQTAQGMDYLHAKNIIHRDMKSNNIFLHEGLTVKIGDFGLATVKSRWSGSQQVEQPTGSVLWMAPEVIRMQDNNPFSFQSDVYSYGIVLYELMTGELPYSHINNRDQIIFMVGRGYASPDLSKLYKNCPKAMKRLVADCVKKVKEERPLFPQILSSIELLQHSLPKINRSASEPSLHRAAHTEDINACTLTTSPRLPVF
Respond with a number, then the unit of measure.

NC(=O)c1cccc(Nc2nccc(-c3[nH]c(C4CC4)nc3-c3cccc(NC(=O)Cc4ccc(Cl)cc4)c3)n2)c1    0.5 nM
O=C(Cc1ccc(Cl)cc1)Nc1cccc(-c2nc(C(F)(F)F)[nH]c2-c2ccnc(NCCN3CCNC3=O)n2)c1    20 nM
CNc1nccc(-c2[nH]c(C3CC3)nc2-c2cccc(NC(=O)Cc3ccc(Cl)cc3)c2)n1    1 nM

# input for lookup
For reference, reported IC50 for `CNc1nccc(-c2[nH]c(C3CC3)nc2-c2cccc(NS(=O)(=O)Cc3ccc(Cl)c(Cl)c3)c2)n1` stands at 26 nM

====

- assay-info: Metabolic stability in human liver microsome after 30 mins
- Assay type: ADME
- condition-set: liver microsomes, read-out: Stability
Each entry below carries its reported remaining at 0.5 h.
Record the value in %, omitting the unit from your answer.

NC(=O)c1cccc(Nc2nccc(-c3[nH]c(C(F)(F)F)nc3-c3cccc(NC(=O)Cc4ccc(Cl)cc4)c3)n2)c1    71

Value of measured remaining at 0.5 h for the entry `CNc1nccc(-c2[nH]c(C3CC3)nc2-c2cccc(NC(=O)Nc3ccc(Cl)c(C(F)(F)F)c3)c2)n1` : 80

Memo: `O=C(Cc1ccc(Cl)cc1)Nc1cccc(-c2nc(C(F)(F)F)[nH]c2-c2ccnc(NCCN3CCNC3=O)n2)c1` , reported remaining at 0.5 h: 73

====

- assay-info: Metabolic stability in human liver microsome after 30 mins
- Format: ADME
- condition-set: liver microsomes, read-out: Stability
endpoint-name: remaining at 0.5 h (%)
Unit % implied. Number only.

NC(=O)c1cccc(Nc2nccc(-c3nc(C4CC4)[nH]c3-c3cccc(NS(=O)(=O)Cc4ccc(Cl)c(Cl)c4)c3)n2)c1    76

get_value(item= `O=C(Cc1ccc(Cl)cc1)Nc1cccc(-c2nc(C3CC3)[nH]c2-c2ccnc(NCCN3CCNC3=O)n2)c1` , readout=remaining at 0.5 h) returns 38

Lab book: remaining at 0.5 h of `NC(=O)c1cccc(Nc2nccc(-c3[nH]c(C4CC4)nc3-c3cccc(NC(=O)Cc4ccc(Cl)cc4)c3)n2)c1` noted as 53

Notebook: CNC(=O)c1cc(Oc2ccc(NC(=O)Nc3ccc(Cl)c(C(F)(F)F)c3)cc2)ccn1 [SORAFENIB] , remaining at 0.5 h read as 80

Short answer for `CNc1nccc(-c2[nH]c(C3CC3)nc2-c2cccc(NS(=O)(=O)Cc3ccc(Cl)c(Cl)c3)c2)n1` : remaining at 0.5 h was 60

Lab note: `O=C1NCCN1CCNc1nccc(-c2nc(C3CC3)[nH]c2-c2cccc(NS(=O)(=O)Cc3ccc(Cl)c(Cl)c3)c2)n1` gave remaining at 0.5 h of 85

get_value(item= `O=C(Nc1cccc(-c2nc(C3CC3)[nH]c2-c2ccnc(NCCN3CCNC3=O)n2)c1)Nc1ccc(Cl)c(C(F)(F)F)c1` , readout=remaining at 0.5 h) returns 50

Please fill in: remaining at 0.5 h reported for `CNc1nccc(-c2[nH]c(C(F)(F)F)nc2-c2cccc(NC(=O)Cc3ccc(Cl)cc3)c2)n1` = 74

====

- assay-info: Inhibition of ERK phosphorylation
endpoint-name: log10 of IC50 (log10 of the value in nM)
Give log10 of IC50, with IC50 taken in nM.

NC(=O)c1cccc(Nc2nccc(-c3[nH]c(C4CC4)nc3-c3cccc(NC(=O)Cc4ccc(Cl)cc4)c3)n2)c1    3.38

The reported log10 of IC50 of the compound `CNC(=O)c1cc(Oc2ccc(NC(=O)Nc3ccc(Cl)c(C(F)(F)F)c3)cc2)ccn1` was 3.92

// field: log10 of IC50; key: `NC(=O)c1cccc(Nc2nccc(-c3[nH]c(C(F)(F)F)nc3-c3cccc(NC(=O)Cc4ccc(Cl)cc4)c3)n2)c1` ; value = 4.48

The compound listed as `O=C(Cc1ccc(Cl)cc1)Nc1cccc(-c2nc(C(F)(F)F)[nH]c2-c2ccnc(NCCN3CCNC3=O)n2)c1` shows log10 of IC50 equal to 4.48

So, `O=C(Cc1ccc(Cl)cc1)Nc1cccc(-c2nc(C3CC3)[nH]c2-c2ccnc(NCCN3CCNC3=O)n2)c1` ? Its log10 of IC50 was 3.48

log10 of IC50 reading for `NC(=O)c1cccc(Nc2nccc(-c3[nH]c(C4CC4)nc3-c3cccc(NC(=O)Nc4ccc(Cl)c(C(F)(F)F)c4)c3)n2)c1` : 3.32

Per the record, `O=C(Nc1cccc(-c2nc(C3CC3)[nH]c2-c2ccnc(NCCN3CCNC3=O)n2)c1)Nc1ccc(Cl)c(C(F)(F)F)c1` has log10 of IC50 of 3.36
